# experimental-details: melting temperature; fluorescence melt of hairpins on a sequencing array, two-state fit, raised by 9.35 °C to match UV melts
# protocol-conditions: sodium 0.088 M
assay-metric: Tm (°C)
Please respond with the number in °C and leave the unit unwritten.

// recorded Tm for GCAGGAACGAAAGTTTGC (((..(((....)))))) : 36

// recorded Tm for GTCTCGGGAAACCGGGAC (((.(((....))).))) : 55.3

// recorded Tm for GATCCATCGGTGGATC ((((((....)))))) : 50.6

// recorded Tm for GTCCTTGGAAACGAGGAC (((((.(....).))))) : 50.7

// recorded Tm for GTCAGGCGAAAGCCGAC (((.(((....)))))) : 60.6

// recorded Tm for GATCGGACGACCGATC ((((((....)))))) : 57.3

// recorded Tm for GATCTAATAGTAGATC ((((((....)))))) : 33.7

// recorded Tm for TCATGGAAACATGA (((((....))))) : 39.8

// recorded Tm for GGTATCGAAAGATGCACC ((((((....)))..))) : 33.9

// recorded Tm for GATCGTTACTACGATC ((((((....)))))) : 55.1

// recorded Tm for GCACTGCGAAAGCACTGC (((.(((....))).))) : 44.4

// recorded Tm for GATCGTCAGTACGATC ((((((....)))))) : 53.7

// recorded Tm for GCTTCGCGAAAGCCGAGC (((..((....))..))) : 41.7

// recorded Tm for GAGGCCCCGAAAGGGCTC (((..(((....)))))) : 50.7

// recorded Tm for GATCGACGTTTCGATC ((((((....)))))) : 50.9

// recorded Tm for GCTCCACCGAAAGGTAGC (((..(((....)))))) : 33.9

// recorded Tm for GGAGTACGAAAGTAATCC (((.(((....))).))) : 51.4

// recorded Tm for GATCTGTCGTCAGATC ((((((....)))))) : 50.5

// recorded Tm for GAAGGGGCGAAAGCCTTC (((..(((....)))))) : 35.2

// recorded Tm for GCAAGAGCGAAAGCTTGC (((..(((....)))))) : 51.9

// recorded Tm for GGGATGGGAAACCACCCC (((.(((....))).))) : 47.3

// recorded Tm for GGACCACGAAAGTGCTCC (((.(((....))).))) : 41.5

// recorded Tm for CGTAACGGAAACGTACG (((.(((....)))))) : 44.3

// recorded Tm for GGATCGGGAAACCAATCC ((((.((....)).)))) : 38.2

// recorded Tm for GGGGTTGAAAAACCCC ((((((....)))))) : 66.7

====

# experimental-details: melting temperature; fluorescence melt of hairpins on a sequencing array, two-state fit, raised by 9.35 °C to match UV melts
# protocol-conditions: sodium 0.088 M
Binary label based on Tm with cut-off 30 °C: below gives t, not below gives f.

*Q* Is the reported Tm for GCAGGGCGAAAGCGATGC (((..((....))..))) strictly below 30 °C?
*A* f

*Q* Is the reported Tm for GATCCATTACTGGATC ((((((....)))))) strictly below 30 °C?
*A* f

*Q* Is the reported Tm for CGAAATCGGAAACGATCG (((..(((....)))))) strictly below 30 °C?
*A* f

*Q* Is the reported Tm for GACTCGGAAACGAGTC ((((((....)))))) strictly below 30 °C?
*A* f

*Q* Is the reported Tm for GTTGACGAAAGTCTCAAC ((((((....)))..))) strictly below 30 °C?
*A* t

====

Field: Tm. Provide a value for each of the sequences that follow.
# experimental-details: melting temperature; fluorescence melt of hairpins on a sequencing array, two-state fit, raised by 9.35 °C to match UV melts
# protocol-conditions: sodium 0.088 M
Please respond with the number in °C and leave the unit unwritten.

// recorded Tm for GTGGCTCGAAAGAGCAC (((.(((....)))))) : 51.2

// recorded Tm for GTCGTTGGAAACAACAAC ((.((((....)))).)) : 34.8

// recorded Tm for GCGTGTTTACGC ((((....)))) : 55

// recorded Tm for GCAGGTGGAAACACCCAC (..((((....))))..) : 32.1

// recorded Tm for GCCGCCGAAAGGCCTGGC ((((((....)))..))) : 51

// recorded Tm for GGACACGAAAGTGTTCC ((((((....))).))) : 56

// recorded Tm for GACCATGGAAACACGGTC ((((.((....)).)))) : 42.5

// recorded Tm for GTTAGGGGAAACCTTAAC ((((.((....)).)))) : 33.4

// recorded Tm for GTAGTGCGAAAGCATAC (((.(((....)))))) : 40.5

// recorded Tm for GGATAAGCGAAAGCTTCC (((..(((....)))))) : 35.5

// recorded Tm for GTTGGGGGAAACCCTAAC (((.(((....))).))) : 45.1

// recorded Tm for GCAGTCGAAAGACTTGC ((((((....))).))) : 50.4

// recorded Tm for GTTGGAGGAAACTCCAAC (((((((....))))))) : 60.8

// recorded Tm for GTGACCCCGAAAGGGCAC (((..(((....)))))) : 50.8

// recorded Tm for GCTGCGCGAAAGCGTGGC ((..(((....)))..)) : 65.9

// recorded Tm for GCGTTCGGAAACGGACGC ((((.((....)).)))) : 64

// recorded Tm for GATCCTCGTTAGGATC ((((((....)))))) : 51.7

// recorded Tm for GATTTTGGAAACAAAGTC ((.((((....)))).)) : 35.3

// recorded Tm for GCCTATGCGAAAGCAGGC (((..(((....)))))) : 54

// recorded Tm for GCACCGCGAAAGCTATGC (((..((....))..))) : 31.1

// recorded Tm for GTAACCCCGAAAGGGTAC (((..(((....)))))) : 35

// recorded Tm for GTCTGCGGAAACGCGGAC (((.(((....))).))) : 63.7

// recorded Tm for AGCTCGAAAGAGCT (((((....))))) : 68.6

// recorded Tm for GCCCCCCGAAAGGGAGGC (((.(((....))).))) : 67

// recorded Tm for GCACTCGAAAGAGATTGC ((((((....)))..))) : 34.2

====

# experimental-details: folding enthalpy; higher = less favourable; fluorescence melt of hairpins on a sequencing array, two-state fit
# protocol-conditions: sodium 0.088 M
assay-metric: folding enthalpy (kcal/mol)
Please respond with the number in kcal/mol and leave the unit unwritten.

// recorded folding enthalpy for GATCTACTTTTAGATC ((((((....)))))) : -33.1

// recorded folding enthalpy for GCTTGCGGAAACGCGAGC (((.(((....))).))) : -29.3

// recorded folding enthalpy for GTAGCACGAAAGTGGTAC (((.(((....))).))) : -33.7

// recorded folding enthalpy for TATGGGAAACCATA (((((....))))) : -14.9

// recorded folding enthalpy for GATCGCTAGGGCGATC ((((((....)))))) : -34.8

// recorded folding enthalpy for GGCCAAGCGAAAGCTGCC (((..(((....)))))) : -21.7
